Target: T1, Human ROBO2 overexpressed on HEK293 cells (human, UniProt Q9HCK4 22-1378)
T1 construct: also called ROBO2 cells; native ROBO2
T1 sequence: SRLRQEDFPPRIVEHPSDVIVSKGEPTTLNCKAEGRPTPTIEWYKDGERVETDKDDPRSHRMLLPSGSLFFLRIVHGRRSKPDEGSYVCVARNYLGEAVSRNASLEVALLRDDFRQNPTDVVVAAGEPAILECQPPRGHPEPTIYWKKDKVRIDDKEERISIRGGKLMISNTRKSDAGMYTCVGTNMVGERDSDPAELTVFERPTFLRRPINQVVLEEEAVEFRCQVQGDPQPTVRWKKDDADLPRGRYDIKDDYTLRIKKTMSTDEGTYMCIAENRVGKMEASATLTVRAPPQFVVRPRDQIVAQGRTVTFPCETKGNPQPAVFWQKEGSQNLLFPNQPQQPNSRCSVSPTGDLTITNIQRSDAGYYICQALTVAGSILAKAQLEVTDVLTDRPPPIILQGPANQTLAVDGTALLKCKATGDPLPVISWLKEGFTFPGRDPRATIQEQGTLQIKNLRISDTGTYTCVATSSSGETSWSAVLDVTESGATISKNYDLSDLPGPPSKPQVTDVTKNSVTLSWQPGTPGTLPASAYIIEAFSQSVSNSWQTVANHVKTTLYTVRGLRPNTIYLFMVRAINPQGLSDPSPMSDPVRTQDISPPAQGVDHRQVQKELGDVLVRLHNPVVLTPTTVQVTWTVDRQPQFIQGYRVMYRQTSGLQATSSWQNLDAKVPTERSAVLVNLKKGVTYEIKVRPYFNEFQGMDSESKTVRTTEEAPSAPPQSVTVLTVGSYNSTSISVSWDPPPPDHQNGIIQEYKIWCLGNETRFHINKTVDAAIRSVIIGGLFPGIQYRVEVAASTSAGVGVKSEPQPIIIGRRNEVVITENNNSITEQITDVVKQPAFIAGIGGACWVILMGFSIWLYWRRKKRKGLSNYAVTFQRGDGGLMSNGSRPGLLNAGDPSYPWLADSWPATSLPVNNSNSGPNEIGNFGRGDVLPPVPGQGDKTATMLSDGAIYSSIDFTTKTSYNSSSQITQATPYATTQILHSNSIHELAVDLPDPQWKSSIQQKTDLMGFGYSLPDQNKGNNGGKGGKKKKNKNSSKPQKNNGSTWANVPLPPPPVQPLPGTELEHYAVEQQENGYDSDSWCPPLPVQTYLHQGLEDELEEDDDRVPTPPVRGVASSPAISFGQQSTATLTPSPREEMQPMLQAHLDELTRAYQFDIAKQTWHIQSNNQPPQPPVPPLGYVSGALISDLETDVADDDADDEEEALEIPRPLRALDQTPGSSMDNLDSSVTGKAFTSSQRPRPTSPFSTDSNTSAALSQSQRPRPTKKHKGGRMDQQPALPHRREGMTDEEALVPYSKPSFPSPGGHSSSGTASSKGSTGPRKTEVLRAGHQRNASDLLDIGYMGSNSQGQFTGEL
Assay: flow cytometry, Geo MFI ROBO2/ROBO1 HEK293 cells, 2.5 µg/ml
Returns one of yes or no; yes when Fold Selectivity for ROBO2/ROBO1 is >= 5 fold.

Binder	Assigned label
CTIR2-16 (antibody, human IgG1, kappa, V domains shown, CDR-shuffled IgG) VH: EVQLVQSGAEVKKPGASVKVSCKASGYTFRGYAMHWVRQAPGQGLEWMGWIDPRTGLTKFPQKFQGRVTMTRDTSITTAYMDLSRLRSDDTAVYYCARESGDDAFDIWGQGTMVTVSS VL: DIVMTQSPSSLSASVGDRVTITCRASQKISSYLNWYQQKPGKAPKLLIYAASSLQYGVPSRFSGSGSGTDFTLTISSLQPEDFATYYCQQSVGLFFGGGTKVEIKR	yes
Abcs50 (antibody, human IgG1, kappa, V domains shown, chain-shuffled IgG) VH: EVQLVQSGAEVKKPGASVKVSCKASGYTFTGYYMHWVRQAPGQGLEWMGWINPKNGDTEFPQKFQGRVTMTRDTSITTAYMDLSRLRSDDTAVYYCARESGDDAFDIWGQGTMVTVSS VL: DIVMTQSPSSLSASVGDRVTITCRASQSISSYLNWYQQKPGKAPKLLIYAASSLQYGVPSRFSGSGSGTDFTLTISSLQPEDFATYYCQQSYSTSFGGGTKVEIKR	no
Abcs20 (antibody, human IgG1, kappa, V domains shown, chain-shuffled IgG) VH: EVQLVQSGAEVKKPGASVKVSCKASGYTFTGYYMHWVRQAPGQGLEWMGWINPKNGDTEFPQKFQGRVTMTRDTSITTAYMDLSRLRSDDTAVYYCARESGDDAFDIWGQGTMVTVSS VL: DIVMTQSPSSLSASVGDRVTITCRASQSISSYLNWYQQKPGKAPKLLIYAASSLQSGVPSRFSGSGSGTDFTLTISSLQPEDFATYYCQQSVGLSFGGGTKVEIKR	yes
CTIR2-9 (antibody, human IgG1, kappa, V domains shown, CDR-shuffled IgG) VH: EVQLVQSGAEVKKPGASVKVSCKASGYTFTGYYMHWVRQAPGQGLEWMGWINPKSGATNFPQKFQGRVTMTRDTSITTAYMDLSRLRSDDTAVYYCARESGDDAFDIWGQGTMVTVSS VL: DIVMTQSPSSLSASVGDRVTITCRASQKISSYLNWYQQKPGKAPKLLIYAASSLQYGVPSRFSGSGSGTDFTLTISSLQPEDFATYYCQQSVGLFFGGGTKVEIKR	yes
CTIR2-14 (antibody, human IgG1, kappa, V domains shown, CDR-shuffled IgG) VH: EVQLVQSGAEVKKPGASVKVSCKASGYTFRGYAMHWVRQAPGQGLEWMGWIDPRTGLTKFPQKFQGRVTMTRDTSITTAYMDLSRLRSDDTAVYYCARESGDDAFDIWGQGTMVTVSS VL: DIVMTQSPSSLSASVGDRVTITCRASQKISSYLNWYQQKPGKAPKLLIYAASSLQYGVPSRFSGSGSGTDFTLTISSLQPEDFATYYCQQSLELGFGGGTKVEIKR	yes
